- Target System: T1, recombinant human TROP2 extracellular domain (aa 1-274) comprising His tag (human, UniProt P09758 27-274)
- T1 construct: Used here for all assays on recombinant human TROP2 (ELISA, immunoblot, SPR, crystal), although only some of them name the catalogue number; also called human recombinant TROP2; recombinant human TROP2 protein; not shown: His tag
- T1 sequence: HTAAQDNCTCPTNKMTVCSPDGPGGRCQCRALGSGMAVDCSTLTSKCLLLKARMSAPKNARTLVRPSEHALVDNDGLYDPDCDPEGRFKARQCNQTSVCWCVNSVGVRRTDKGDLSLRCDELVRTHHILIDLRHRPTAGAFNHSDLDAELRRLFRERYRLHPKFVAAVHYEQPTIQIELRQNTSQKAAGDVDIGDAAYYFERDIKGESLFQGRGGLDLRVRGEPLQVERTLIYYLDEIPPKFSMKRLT
- Assay Protocol: ELISA, coated rh TROP2
In this section we review reported EC50 values for a set of binders.
Just the number in nM, nothing appended.

Query block: State, in one line, measured EC50 of KD025 (antibody, V domains shown, KD002 humanized variant) VH: QVQLVESGGGLVQVGGSLRLSCAASGFPFSSADMSWVRQAPGKGPEWVSYINADGSKTYYPDTVKGRFTISRDNAKNTLYLQMNSLKPEDTAVYRCARAKLTDTHYVEDYWGQGTQVTVSS
Result block: 0.11

Query block: For KD027 (antibody, V domains shown, KD002 humanized variant) VH: QVQLQESGGGMVQVGGSLRLSCAASGFPFSSADMSWVRQAPGKGPEWVSYINADGSKTYYPDSVKGRFTISRDNAKNTLYLQMNSLKPEDTAVYRCARAKLTDTHYVEDYWGQGTQVTVSS , write its EC50.
Result block: 0.09

Query block: Write down EC50 measured for item KD032 (antibody, V domains shown, KD002 humanized variant) VH: QVQLLESGGGLVQPGGSLRLSCAASGFPFSSADMSWVRQAPGKGLEWVSYINADGSKTYYADTVKGRFTISRDNSKNTLYLQMNSLRAEDTAVYRCARAKLTDTHYVEDYWGQGTMVTVSS
Result block: 0.15

Query block: Supply reported EC50 belonging to this binder: KD026 (antibody, V domains shown, KD002 humanized variant) VH: QVQLQESGGGMVQVGGSLRLSCAASGFPFSSADMSWVRQAPGKGPEWVSYINADGSKTYYPDTVKGRFTISRDNAKNTLYLQMNSLKPEDTAVYRCARAKLTDTHYVEDYWGQGTQVTVSS
Result block: 0.1

Query block: Give EC50 for KD039 (antibody, V domains shown, KD002 humanized variant) VH: QVQLQESGGGMVQPGGSLRLSCAASGFPFSSADMSWVRQAPGKGLEWVSYINADGSKTYYADTVKGRFTISRDNSKNTLYLQMNSLRAEDTAVYRCARAKLTDTHYVEDYWGQGTQVTVSS
Result block: 0.15

Query block: Specify EC50 for KD002 (antibody, human IgG1, V domains shown, also called anti-TROP2 sdAb KD002) VH: QVQLQESGGGMVQVGGSLRLSCAASGFPFSSADMSWVRQAPGKGPEWVSYINADGSKTYYPDSVKGRFTISRDNAKNTLYLLMNNLKPEDTALYRCARAKLTDTHYVEDYWGQGTQVTVSS and stop.
Result block: 0.07

Proceed to the following item.
Query block: Give the reported EC50 for this binder. KD023 (antibody, V domains shown, KD002 humanized variant) VH: QVQLVESGGGLVQPGGSLRLSCAASGFPFSSADMSWVRQAPGKGPEWVSYINADGSKTYYPDTVKGRFTISRDNAKNTLYLQMNSLRAEDTAVYYCARAKLTDTHYVEDYWGQGTQVTVSS
Result block: 0.08
